# Substrate: SPOC domain from murine SHARP, residues 3474-3643 (mouse) (UniProt Q62504)
# TEST DETAILS: ITC
Where no end group is shown, it is not given here. [ ]: non-standard residue; d: D form. pS = N[C@@H](COP(=O)(O)O)C(=O)O
QUANTITY: Kd (nM)

INSERT INTO assay_data (binder, quantity, measured) VALUES
  ('REPAPLLSAQYETL[pS]D[pS]DD [NCoR C-terminal peptide, double-phosphorylated]', 'Kd', 50);
